This collection of values is drawn from paper PMC11882969.

- targetOrTestSystem: hCB1 (Homo sapiens)
- assayExplanation: bioSensAll ebBRET signaling profiling, hCB1
- Type: cell-based
- Parameters: host or cells: HEK293SL cells, transient PEI transfection
- protocolConditions: read-out: Emax [95% CI], hCB1 GoB; normalized to CP-55,940
Emax for assorted molecules
Give your result in % as a bare value.

Query :: Reported Emax for COC(=O)C(C)(NC(=O)c1cc(C)n(-c2cccc(C(F)(F)F)c2)n1)c1cccs1 (stereo not shown) [‘4042] : what is it?
Result :: 103

Query :: Same for COC(=O)[C@@](C)(NC(=O)c1cc(C)n(-c2cccc(C(F)(F)F)c2)n1)c1cccs1 [‘1350]
Result :: 98

Query :: Same for COC(=O)[C@](C)(NC(=O)c1cc(C)n(-c2cccc(C(F)(F)F)c2)n1)c1cccs1 [‘8690]
Result :: 83

Query :: Same for COC(=O)C(NC(=O)c1cc(C)n(-c2cccc(F)c2)n1)c1cccs1 (stereo not shown) [‘51486]
Result :: 74

====

- targetOrTestSystem: hCB1 (Homo sapiens, UniProt P21554)
- Sequence (P21554 whole entry): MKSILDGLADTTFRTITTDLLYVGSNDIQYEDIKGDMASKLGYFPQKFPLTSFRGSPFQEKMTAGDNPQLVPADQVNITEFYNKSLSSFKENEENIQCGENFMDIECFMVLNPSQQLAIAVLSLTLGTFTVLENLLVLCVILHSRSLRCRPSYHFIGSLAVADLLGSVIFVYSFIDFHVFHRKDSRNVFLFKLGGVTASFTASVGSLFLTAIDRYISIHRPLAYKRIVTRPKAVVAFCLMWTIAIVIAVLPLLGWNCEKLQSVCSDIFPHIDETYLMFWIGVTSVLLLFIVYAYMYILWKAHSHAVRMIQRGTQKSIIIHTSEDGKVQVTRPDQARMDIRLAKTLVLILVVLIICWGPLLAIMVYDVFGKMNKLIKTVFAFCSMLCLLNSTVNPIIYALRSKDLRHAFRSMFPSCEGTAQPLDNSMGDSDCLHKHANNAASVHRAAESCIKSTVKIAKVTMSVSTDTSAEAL
- assayExplanation: bioSensAll ebBRET signaling profiling, hCB1
- Type: cell-based
- Parameters: host or cells: HEK293SL cells, transient PEI transfection
- protocolConditions: Barr2+GRK2 biosensor; Log [Compound] (M) -7.14267
Barr2+GRK2 hCB1 response for assorted molecules
Just the number.

[
  {
    "molecule": "Brc1cc2c(cc1Cc1noc(-c3cnn(CC4CC4)c3)n1)OCO2 [‘5424]",
    "Barr2+GRK2 hCB1 response": -52.6635
  },
  {
    "molecule": "Cn1nc(-c2nnc(C(C)(C)Oc3ccc(C(F)(F)F)cc3)o2)c2ccccc2c1=O [‘2153]",
    "Barr2+GRK2 hCB1 response": -46.282
  },
  {
    "molecule": "Cc1c(C(=O)OCC2CSc3ccccc3O2)cnn1Cc1ccccc1 (stereo not drawn) [‘7800]",
    "Barr2+GRK2 hCB1 response": -56.4924
  }
]

Query :: Reported Barr2+GRK2 hCB1 response for Cn1nc(-c2nnc(C(C)(C)Oc3ccc(Cl)cc3)o2)c2ccccc2c1=O [‘0450] : what is it?
Result :: -54.5779

Query :: Same for Cc1nn(Cc2ccc(Cl)cc2)c(C)c1C(=O)OCC1CSc2ccccc2O1 (stereo not drawn) [‘5463]
Result :: -43.7294

Query :: Same for Cc1nc(CC2CC2)oc1-c1nc(Cc2cc3c(cc2Br)OCO3)no1 [‘7019]
Result :: 9.875

====

- targetOrTestSystem: hCB1 (Homo sapiens, UniProt P21554)
- assayExplanation: bioSensAll ebBRET signaling profiling, hCB1
- Type: cell-based
- Parameters: host or cells: HEK293SL cells, transient PEI transfection
- protocolConditions: Log [Compound] (M) -6.31878; single replicate values, FigS6a
outcomeMeasure: GoB hCB1
Just the number.

[
  {
    "molecule": "COC(=O)[C@@H]1[C@@H]2CCC[C@@H]2CN1C(=O)c1cc(C)n(-c2cccc(C(F)(F)F)c2)n1",
    "GoB hCB1": 89.4207
  },
  {
    "molecule": "Cc1c(C(=O)OCC2CSc3ccccc3O2)cnn1Cc1ccccc1 (stereo not shown)",
    "GoB hCB1": 4.265
  },
  {
    "molecule": "COC(=O)C(NC(=O)c1cc(C)n(-c2cccc(C(F)(F)F)c2)n1)c1cccs1 (stereo not shown)",
    "GoB hCB1": 99.5993
  }
]

Query :: Reported GoB hCB1 for Cc1cc(C(=O)N2CC3(CCC3)[C@@H]2[C@@H]2CCCO2)nn1-c1cccc(C(F)(F)F)c1 : what is it?
Result :: 2.327

Query :: Same for Cn1nc(-c2nnc(C(C)(C)Oc3ccc(Cl)cc3)o2)c2ccccc2c1=O
Result :: 3.397

Query :: Same for Cc1cc(C(=O)NC(c2ccccc2)c2ccco2)nn1-c1cccc(C(F)(F)F)c1 (stereo not shown)
Result :: 34.6075

Query :: Same for COc1cccc(C(NC(=O)c2cc(C)n(-c3cccc(C(F)(F)F)c3)n2)c2ccco2)c1 (stereo not shown)
Result :: -3.409

Query :: Same for Cc1cc(C(=O)N2CC3(CCC3)[C@H]2[C@@H]2CCCO2)nn1-c1cccc(C(F)(F)F)c1
Result :: 23.8534

Query :: Same for Cc1cc(C(=O)NC(c2ccccc2)c2ccco2)nn1-c1cccc(C#N)c1 (stereo not shown)
Result :: 26.4251

Query :: Same for COC(=O)C(NC(=O)c1cc(C)n(-c2cccc(F)c2)n1)c1cccs1 (stereo not shown)
Result :: 23.3139

Query :: Same for COC(=O)[C@@H]1[C@@H]2CC[C@@H]2CN1C(=O)c1cc(C)n(-c2cccc(C(F)(F)F)c2)n1
Result :: 55.1804

Query :: Same for Cc1nn(Cc2ccc(Cl)cc2)c(C)c1C(=O)OCC1CSc2ccccc2O1 (stereo not shown)
Result :: 2.3203

Query :: Same for Brc1cc2c(cc1Cc1noc(-c3cnn(CC4CC4)c3)n1)OCO2
Result :: -15.128

Query :: Same for Cn1nc(-c2nnc(C(C)(C)Oc3ccc(C(F)(F)F)cc3)o2)c2ccccc2c1=O
Result :: 35.0814

Query :: Same for CC(=O)C(c1cccs1)N(C)C(=O)c1cc(C)n(-c2cccc(C(F)(F)F)c2)n1 (stereo not shown)
Result :: 16.7141

Query :: Same for Cc1cc(C(=O)NC(c2ccco2)c2ccco2)nn1-c1cccc(C(F)(F)F)c1
Result :: 81.2923
